- Test system: RARb homodimer (NR concentration 270 nM)
- Test Method Notes: PBM binding z-score (relative to random genomic background probes); higher = stronger binding; sequences stand for … in GC…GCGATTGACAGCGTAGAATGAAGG
Readings of PBM binding z-score for the listed sequences
Reported Endpoint: PBM binding z-score

- Primary Sequence: "ATCTCTAGGTAAGACTCAGTTCAGTGGAGAACGC"
  Val: 0.868
- Primary Sequence: "TGGCCTAGGTCATTGGGCCAGTATAGTACGCATC"
  Val: 2.71
- Primary Sequence: "CAGCCTAGGTCAGGGCCAGTCTAGGAGGAACGTT"
  Val: 2.6
- Primary Sequence: "GGAACGAGGGCCTTCGAGTTGATAGCATGGCGAT"
  Val: -1.03
- Primary Sequence: "CCTGCTAGGTCCATGGTCAGCTAAAGCAGCTCGC"
  Val: 0.248
- Primary Sequence: "CGAACGAGGGCATGAGTTGATCGCAAATGCCGAT"
  Val: 0.684
- Primary Sequence: "TATACAGGGTCAATGGCCAGAGTACGAATGTCGA"
  Val: 3.21
